Data origin, for the record: the supplement of paper PMC8617591

Test system: Mycobacterium tuberculosis Erdman (autoluminescent)
Assay: GRinf, maximum normalised growth rate inhibition (unitless (-1 to 1)); higher = less effect (negative = killing)
Settings: in vitro model: valerate; time point: terminal (~4-5 doublings, model-specific)
Attribute measured: GRinf
# output: bare number, no unit

Given the entry COc1c(N2C[C@@H]3CCCN[C@@H]3C2)c(F)cc2c(=O)c(C(=O)O)cn(C3CC3)c12 [moxifloxacin] + CO[C@H]1/C=C/O[C@@]2(C)Oc3c(C)c(O)c4c(O)c(c(/C=N/N5CCN(C)CC5)c(O)c4c3C2=O)NC(=O)/C(C)=C\C=C\[C@H](C)[C@H](O)[C@@H](C)[C@@H](O)[C@@H](C)[C@H](OC(C)=O)[C@@H]1C [rifampicin] , report its measured GRinf.
0.0646

---

I'd be grateful if you could share measured GRinf for these entries.
System: Mycobacterium tuberculosis Erdman (autoluminescent)
Experiment: GRinf, maximum normalised growth rate inhibition (three-drug combination) (unitless (-1 to 1)); higher = less effect (negative = killing)
Conditions: in vitro model: standard 7H9 glycerol; time point: constant = terminal
Quick one: just the number, no unit, thanks!

Tell me the measured GRinf of NNC(=O)c1ccncc1 [isoniazid] + COc1c(N2C[C@@H]3CCCN[C@@H]3C2)c(F)cc2c(=O)c(C(=O)O)cn(C3CC3)c12 [moxifloxacin] + CO[C@H]1/C=C/O[C@@]2(C)Oc3c(C)c(O)c4c(O)c(c(/C=N/N5CCN(C6CCCC6)CC5)c(O)c4c3C2=O)NC(=O)/C(C)=C\C=C\[C@H](C)[C@H](O)[C@@H](C)[C@@H](O)[C@@H](C)[C@H](OC(C)=O)[C@@H]1C [rifapentine] , please.
0.0464

Sample NNC(=O)c1ccncc1 [isoniazid] + CC(=O)NC[C@H]1CN(c2ccc(N3CCOCC3)c(F)c2)C(=O)O1 [linezolid] + NC(=O)c1cnccn1 [pyrazinamide] — what was its GRinf?
-0.0363

Data request, read-out GRinf, for COc1nc2ccc(Br)cc2cc1[C@@H](c1ccccc1)[C@@](O)(CCN(C)C)c1cccc2ccccc12 [bedaquiline] + CC[C@@H](CO)NCCN[C@@H](CC)CO [ethambutol] + NNC(=O)c1ccncc1 [isoniazid]
-0.0846

Bench note: what GRinf did CC(=O)NC[C@H]1CN(c2ccc(N3CCOCC3)c(F)c2)C(=O)O1 [linezolid] + NC(=O)c1cnccn1 [pyrazinamide] + CO[C@H]1/C=C/O[C@@]2(C)Oc3c(C)c(O)c4c(O)c(c(/C=N/N5CCN(C6CCCC6)CC5)c(O)c4c3C2=O)NC(=O)/C(C)=C\C=C\[C@H](C)[C@H](O)[C@@H](C)[C@@H](O)[C@@H](C)[C@H](OC(C)=O)[C@@H]1C [rifapentine] show?
0.183

Could you share which GRinf value was measured for CC[C@@H](CO)NCCN[C@@H](CC)CO [ethambutol] + O=[N+]([O-])c1cn2c(n1)OC[C@@H](OCc1ccc(OC(F)(F)F)cc1)C2 [pretomanid] + CO[C@H]1/C=C/O[C@@]2(C)Oc3c(C)c(O)c4c(O)c(c(/C=N/N5CCN(C6CCCC6)CC5)c(O)c4c3C2=O)NC(=O)/C(C)=C\C=C\[C@H](C)[C@H](O)[C@@H](C)[C@@H](O)[C@@H](C)[C@H](OC(C)=O)[C@@H]1C [rifapentine] ?
0.0905

What does the record list as GRinf for COc1nc2ccc(Br)cc2cc1[C@@H](c1ccccc1)[C@@](O)(CCN(C)C)c1cccc2ccccc12 [bedaquiline] + NNC(=O)c1ccncc1 [isoniazid] + O=[N+]([O-])c1cn2c(n1)OC[C@@H](OCc1ccc(OC(F)(F)F)cc1)C2 [pretomanid] ?
-0.103

For the molecule shown here, COc1nc2ccc(Br)cc2cc1[C@@H](c1ccccc1)[C@@](O)(CCN(C)C)c1cccc2ccccc12 [bedaquiline] + CC(C)/N=c1\cc2n(-c3ccc(Cl)cc3)c3ccccc3nc-2cc1Nc1ccc(Cl)cc1 [clofazimine] + COc1c(N2C[C@@H]3CCCN[C@@H]3C2)c(F)cc2c(=O)c(C(=O)O)cn(C3CC3)c12 [moxifloxacin] , give the reported GRinf.
-0.156

---

Test system: Mycobacterium tuberculosis Erdman (autoluminescent)
Assay: GRinf, maximum normalised growth rate inhibition (three-drug combination) (unitless (-1 to 1)); higher = less effect (negative = killing)
Conditions: in vitro model: dormancy (butyrate + nitrate, low O2); time point: terminal (~4-5 doublings, model-specific)
Attribute measured: GRinf
The answer should be a number; do not append a unit.

Suppose we examine the molecule CC(C)/N=c1\cc2n(-c3ccc(Cl)cc3)c3ccccc3nc-2cc1Nc1ccc(Cl)cc1 [clofazimine] + CC(=O)NC[C@H]1CN(c2ccc(N3CCOCC3)c(F)c2)C(=O)O1 [linezolid] + CO[C@H]1/C=C/O[C@@]2(C)Oc3c(C)c(O)c4c(O)c(c(/C=N/N5CCN(C6CCCC6)CC5)c(O)c4c3C2=O)NC(=O)/C(C)=C\C=C\[C@H](C)[C@H](O)[C@@H](C)[C@@H](O)[C@@H](C)[C@H](OC(C)=O)[C@@H]1C [rifapentine] ; what GRinf value has been reported?
-0.23

// returns reported GRinf for input CC(C)/N=c1\cc2n(-c3ccc(Cl)cc3)c3ccccc3nc-2cc1Nc1ccc(Cl)cc1 [clofazimine] + NC(=O)c1cnccn1 [pyrazinamide] + CO[C@H]1/C=C/O[C@@]2(C)Oc3c(C)c(O)c4c(O)c(c(/C=N/N5CCN(C6CCCC6)CC5)c(O)c4c3C2=O)NC(=O)/C(C)=C\C=C\[C@H](C)[C@H](O)[C@@H](C)[C@@H](O)[C@@H](C)[C@H](OC(C)=O)[C@@H]1C [rifapentine]
-0.269

Name the reported GRinf value associated with the molecule NNC(=O)c1ccncc1 [isoniazid] + NC(=O)c1cnccn1 [pyrazinamide] + CO[C@H]1/C=C/O[C@@]2(C)Oc3c(C)c(O)c4c(O)c(c(/C=N/N5CCN(C6CCCC6)CC5)c(O)c4c3C2=O)NC(=O)/C(C)=C\C=C\[C@H](C)[C@H](O)[C@@H](C)[C@@H](O)[C@@H](C)[C@H](OC(C)=O)[C@@H]1C [rifapentine]
-0.0606

Query: GRinf; subject: CC[C@@H](CO)NCCN[C@@H](CC)CO [ethambutol] + O=[N+]([O-])c1cn2c(n1)OC[C@@H](OCc1ccc(OC(F)(F)F)cc1)C2 [pretomanid] + NC(=O)c1cnccn1 [pyrazinamide]
-0.312

Given COc1nc2ccc(Br)cc2cc1[C@@H](c1ccccc1)[C@@](O)(CCN(C)C)c1cccc2ccccc12 [bedaquiline] + O=[N+]([O-])c1cn2c(n1)OC[C@@H](OCc1ccc(OC(F)(F)F)cc1)C2 [pretomanid] + NC(=O)c1cnccn1 [pyrazinamide] , state its recorded GRinf.
-0.0996

What value of measured GRinf is listed for COc1nc2ccc(Br)cc2cc1[C@@H](c1ccccc1)[C@@](O)(CCN(C)C)c1cccc2ccccc12 [bedaquiline] + CC(C)/N=c1\cc2n(-c3ccc(Cl)cc3)c3ccccc3nc-2cc1Nc1ccc(Cl)cc1 [clofazimine] + CO[C@H]1/C=C/O[C@@]2(C)Oc3c(C)c(O)c4c(O)c(c(/C=N/N5CCN(C6CCCC6)CC5)c(O)c4c3C2=O)NC(=O)/C(C)=C\C=C\[C@H](C)[C@H](O)[C@@H](C)[C@@H](O)[C@@H](C)[C@H](OC(C)=O)[C@@H]1C [rifapentine] ?
-0.206

Fill in the blank: the reported GRinf of COc1nc2ccc(Br)cc2cc1[C@@H](c1ccccc1)[C@@](O)(CCN(C)C)c1cccc2ccccc12 [bedaquiline] + NNC(=O)c1ccncc1 [isoniazid] + COc1c(N2C[C@@H]3CCCN[C@@H]3C2)c(F)cc2c(=O)c(C(=O)O)cn(C3CC3)c12 [moxifloxacin] is ____.
-0.252

Need GRinf, item NNC(=O)c1ccncc1 [isoniazid] + COc1c(N2C[C@@H]3CCCN[C@@H]3C2)c(F)cc2c(=O)c(C(=O)O)cn(C3CC3)c12 [moxifloxacin] + O=[N+]([O-])c1cn2c(n1)OC[C@@H](OCc1ccc(OC(F)(F)F)cc1)C2 [pretomanid]
-0.111

---

Tested on: Mycobacterium tuberculosis Erdman (autoluminescent)
Assay: Einf, fitted maximum growth inhibition of three-drug combination (fraction); higher = stronger maximal inhibition
Settings: in vitro model: valerate; time point: terminal (~4-5 doublings, model-specific)
Give measured Einf for each item. Keep answers brief.
Lab note: record the figure alone, no unit after it.

Suppose we examine the molecule CC[C@@H](CO)NCCN[C@@H](CC)CO [ethambutol] + NNC(=O)c1ccncc1 [isoniazid] + NC(=O)c1cnccn1 [pyrazinamide] ; what Einf value has been reported?
0.898

Can you share its Einf? I mean this molecule: COc1nc2ccc(Br)cc2cc1[C@@H](c1ccccc1)[C@@](O)(CCN(C)C)c1cccc2ccccc12 [bedaquiline] + NC(=O)c1cnccn1 [pyrazinamide] + CO[C@H]1/C=C/O[C@@]2(C)Oc3c(C)c(O)c4c(O)c(c(/C=N/N5CCN(C6CCCC6)CC5)c(O)c4c3C2=O)NC(=O)/C(C)=C\C=C\[C@H](C)[C@H](O)[C@@H](C)[C@@H](O)[C@@H](C)[C@H](OC(C)=O)[C@@H]1C [rifapentine]
0.939

Which measured Einf value corresponds to COc1nc2ccc(Br)cc2cc1[C@@H](c1ccccc1)[C@@](O)(CCN(C)C)c1cccc2ccccc12 [bedaquiline] + CC(=O)NC[C@H]1CN(c2ccc(N3CCOCC3)c(F)c2)C(=O)O1 [linezolid] + COc1c(N2C[C@@H]3CCCN[C@@H]3C2)c(F)cc2c(=O)c(C(=O)O)cn(C3CC3)c12 [moxifloxacin] ?
0.947

Any idea what Einf was measured for COc1nc2ccc(Br)cc2cc1[C@@H](c1ccccc1)[C@@](O)(CCN(C)C)c1cccc2ccccc12 [bedaquiline] + CC[C@@H](CO)NCCN[C@@H](CC)CO [ethambutol] + COc1c(N2C[C@@H]3CCCN[C@@H]3C2)c(F)cc2c(=O)c(C(=O)O)cn(C3CC3)c12 [moxifloxacin] ?
0.939

Record request: Einf value, item CC(C)/N=c1\cc2n(-c3ccc(Cl)cc3)c3ccccc3nc-2cc1Nc1ccc(Cl)cc1 [clofazimine] + CC[C@@H](CO)NCCN[C@@H](CC)CO [ethambutol] + CO[C@H]1/C=C/O[C@@]2(C)Oc3c(C)c(O)c4c(O)c(c(/C=N/N5CCN(C)CC5)c(O)c4c3C2=O)NC(=O)/C(C)=C\C=C\[C@H](C)[C@H](O)[C@@H](C)[C@@H](O)[C@@H](C)[C@H](OC(C)=O)[C@@H]1C [rifampicin]
0.929

So what does the record say about Einf for COc1nc2ccc(Br)cc2cc1[C@@H](c1ccccc1)[C@@](O)(CCN(C)C)c1cccc2ccccc12 [bedaquiline] + NNC(=O)c1ccncc1 [isoniazid] + O=[N+]([O-])c1cn2c(n1)OC[C@@H](OCc1ccc(OC(F)(F)F)cc1)C2 [pretomanid] ?
0.953

Einf lookup needed for COc1nc2ccc(Br)cc2cc1[C@@H](c1ccccc1)[C@@](O)(CCN(C)C)c1cccc2ccccc12 [bedaquiline] + COc1c(N2C[C@@H]3CCCN[C@@H]3C2)c(F)cc2c(=O)c(C(=O)O)cn(C3CC3)c12 [moxifloxacin] + CO[C@H]1/C=C/O[C@@]2(C)Oc3c(C)c(O)c4c(O)c(c(/C=N/N5CCN(C6CCCC6)CC5)c(O)c4c3C2=O)NC(=O)/C(C)=C\C=C\[C@H](C)[C@H](O)[C@@H](C)[C@@H](O)[C@@H](C)[C@H](OC(C)=O)[C@@H]1C [rifapentine] , thanks.
0.946

Tell me the measured Einf of CC(C)/N=c1\cc2n(-c3ccc(Cl)cc3)c3ccccc3nc-2cc1Nc1ccc(Cl)cc1 [clofazimine] + NC(=O)c1cnccn1 [pyrazinamide] + CO[C@H]1/C=C/O[C@@]2(C)Oc3c(C)c(O)c4c(O)c(c(/C=N/N5CCN(C)CC5)c(O)c4c3C2=O)NC(=O)/C(C)=C\C=C\[C@H](C)[C@H](O)[C@@H](C)[C@@H](O)[C@@H](C)[C@H](OC(C)=O)[C@@H]1C [rifampicin] , please.
0.896

Value lookup for Einf; key = COc1nc2ccc(Br)cc2cc1[C@@H](c1ccccc1)[C@@](O)(CCN(C)C)c1cccc2ccccc12 [bedaquiline] + CC(=O)NC[C@H]1CN(c2ccc(N3CCOCC3)c(F)c2)C(=O)O1 [linezolid] + CO[C@H]1/C=C/O[C@@]2(C)Oc3c(C)c(O)c4c(O)c(c(/C=N/N5CCN(C6CCCC6)CC5)c(O)c4c3C2=O)NC(=O)/C(C)=C\C=C\[C@H](C)[C@H](O)[C@@H](C)[C@@H](O)[C@@H](C)[C@H](OC(C)=O)[C@@H]1C [rifapentine]
0.945

Report Einf for NNC(=O)c1ccncc1 [isoniazid] + CC(=O)NC[C@H]1CN(c2ccc(N3CCOCC3)c(F)c2)C(=O)O1 [linezolid] + CO[C@H]1/C=C/O[C@@]2(C)Oc3c(C)c(O)c4c(O)c(c(/C=N/N5CCN(C6CCCC6)CC5)c(O)c4c3C2=O)NC(=O)/C(C)=C\C=C\[C@H](C)[C@H](O)[C@@H](C)[C@@H](O)[C@@H](C)[C@H](OC(C)=O)[C@@H]1C [rifapentine] please.
0.931

Give its Einf value. Item: CC(C)/N=c1\cc2n(-c3ccc(Cl)cc3)c3ccccc3nc-2cc1Nc1ccc(Cl)cc1 [clofazimine] + CC[C@@H](CO)NCCN[C@@H](CC)CO [ethambutol] + NC(=O)c1cnccn1 [pyrazinamide]
0.898

I'd like to know its Einf. The molecule in question is CC(C)/N=c1\cc2n(-c3ccc(Cl)cc3)c3ccccc3nc-2cc1Nc1ccc(Cl)cc1 [clofazimine] + COc1c(N2C[C@@H]3CCCN[C@@H]3C2)c(F)cc2c(=O)c(C(=O)O)cn(C3CC3)c12 [moxifloxacin] + O=[N+]([O-])c1cn2c(n1)OC[C@@H](OCc1ccc(OC(F)(F)F)cc1)C2 [pretomanid]
0.934

Consider the molecule shown here: CC(C)/N=c1\cc2n(-c3ccc(Cl)cc3)c3ccccc3nc-2cc1Nc1ccc(Cl)cc1 [clofazimine] + NNC(=O)c1ccncc1 [isoniazid] + NC(=O)c1cnccn1 [pyrazinamide] What is its recorded Einf?
0.933

Look at this molecule and give its reported Einf. NNC(=O)c1ccncc1 [isoniazid] + COc1c(N2C[C@@H]3CCCN[C@@H]3C2)c(F)cc2c(=O)c(C(=O)O)cn(C3CC3)c12 [moxifloxacin] + O=[N+]([O-])c1cn2c(n1)OC[C@@H](OCc1ccc(OC(F)(F)F)cc1)C2 [pretomanid]
0.948

Endpoint output: Einf of CC[C@@H](CO)NCCN[C@@H](CC)CO [ethambutol] + CC(=O)NC[C@H]1CN(c2ccc(N3CCOCC3)c(F)c2)C(=O)O1 [linezolid] + NC(=O)c1cnccn1 [pyrazinamide] . Value?
0.909
